Could you please report measured pest or weed control at 125 g/ha for the items listed next?
- System: pigweed (Amaranthus retroflexus)
- assay_text: Test A preemergence
- Format: in vivo
- recorded_conditions: Amaranthus retroflexus, pre-emergence, 240 h, 125 g ai/ha, preemergence; visual rating after approx. 10 d; 0 to 100 scale where 0 is no effect and 100 is complete control; read-out: Plant response rating, Pigweed
Numbers only, in %.

Request body: readout pest or weed control at 125 g/ha, system pigweed (Amaranthus retroflexus), query CN1C[C@H](c2ccc(F)c(OC(F)(F)C(F)F)c2)[C@@H](C(=O)Nc2ccccc2F)C1=O [Compound 740] . Return the value.
70

Request body: readout pest or weed control at 125 g/ha, system pigweed (Amaranthus retroflexus), query Cc1ccc(NC(=O)[C@H]2C(=O)N(C)C[C@@H]2c2cc(F)cc(F)c2)c(F)c1F [Compound 771] . Return the value.
0

Hi! Can you tell me pest or weed control at 125 g/ha for each of these molecules?
1. O=C1NC[C@H](c2ccc(C3CC3)cc2)[C@H]1C(=O)Nc1ccccc1F [Compound 727]
2. CN1C[C@H](c2nccs2)[C@@H](C(=O)Nc2ccccc2F)C1=O [Compound 773]
3. Cc1cc([C@H]2CN(C)C(=O)[C@@H]2C(=O)Nc2ccccc2F)cc(C)c1C [Compound 797]

1. 0
2. 0
3. 20

All figures here come from patent US12077503B2.
